Listing: MIC of selected compounds
- Test system: Pseudomonas aeruginosa NH57388A
- Test Method Notes: MIC determination, strain NH57388A
- Format: cell-based
- Conditions Used: read-out: MIC100
Measurement Type: MIC (µg/mL)

Compound | Measurement Type | Bound Type | Recorded Value
O=C(O)C(S)C(S)C(=O)O (stereo not shown) [2,3-Dimercaptosuccinic Acid, 2,3-dimercaptosuccinic acid] | MIC | = | 2000
NCCSSCCN [Cystamine, cystamine] | MIC | = | 2000
NCCS(=O)(=O)O [Taurine, taurine] | MIC | > | 2000
NCCS [Cysteamine, cysteamine] | MIC | = | 667
